FYI, the data here is from PubChem BioAssay AID1159580.

# test summary: chemical genetic growth profiling, strain panel (AID 1159580);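 further: tested at 20 µM; growth read once vehicle control cultures reached saturation at 30 °C; 1 = growth at the plate median or of vehicle wells; lower values mean less growth of the strain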
# condition summary: S. cerevisiae deletion strains, growth OD, locus YML032C, strain rad52, active compounds read low
Hit rate of the full screen: of about 5,500 compounds, about 2,000 (36%) were called active. Another 18% or so got no clear call; they are omitted. The list shows a part of the results.
Listing of entries alongside the reported normalized growth.
# output: bare number, no unit

Worked examples follow.
compound=O=c1oc2cc(O)ccc2s1 test_result=0.858
compound="Nc1ccccc1C(=O)CC(N)C(=O)O (stereo not drawn)" test_result=1.02
compound=NNC(=O)c1ccncc1 test_result=0.995
compound="C#C[C@]1(O)CCC2C3CCC4=C(CCC(=O)C4)C3CC[C@@]21C (stereo partly drawn)" test_result=0.975
compound=Cc1cc(O)cc(O)c1C(=O)O test_result=0.99
compound=CCOP(=S)(OCC)Oc1cc(C)nc(C(C)C)n1 test_result=0.989
compound=COc1ccc2c(c1)c(CC(=O)O)c(C)n2C(=O)c1ccc(Cl)cc1 test_result=0.999
compound=COc1ccc2[nH]cc(CCN)c2c1 test_result=1

Complete the entry with normalized growth for CCCOc1ccccc1-c1nc2n[nH]nc2c(=O)[nH]1
1.02

Complete the entry with normalized growth for O=c1cc(CO)occ1O
1.04

Complete the entry with normalized growth for CCC(C)C(NC)C(=O)O (stereo not drawn)
0.963

Complete the entry with normalized growth for Nc1c2ccccc2nc2ccccc12
0.314

Complete the entry with normalized growth for O=C1C(O)=C(O)C(=O)C(O)=C1O
1.01

###

# test summary: chemical genetic growth profiling, strain panel (AID 1159580)
# condition summary: S. cerevisiae deletion strains, growth OD, locus YLR039C, strain RIC1, active compounds read low
About 2,000 (36%) of roughly 5,500 compounds were called active. Not shown: some 18% with an inconclusive outcome. Some of the results follow.
outcome measure: normalized growth
# output: bare number, no unit

Worked examples follow.
compound=CS/C(N)=N\N=C/c1c(F)cccc1Cl test_result=1.1
compound=NC(N)=N/N=C/c1c(Cl)cccc1Cl test_result=0.965

Complete the entry with normalized growth for O=C(O)c1ccc(N=Cc2ccc3c(c2)OCO3)cc1
0.991

Complete the entry with normalized growth for O=C(NC1CCN(Cc2ccc(Cl)c(Cl)c2)CC1)c1ccccc1
0.94

Complete the entry with normalized growth for CC(OCc1ccccc1)C(NC(=O)OC(C)(C)C)C(N)=O (configuration not stated)
0.977

###

Listing of entries alongside the reported normalized growth.
# test summary: chemical genetic growth profiling, strain panel (AID 1159580)
# condition summary: S. cerevisiae deletion strains, growth OD, locus YGR092W, strain DBF2, active compounds read low
In all, about 5,500 compounds went through this assay and about 2,000 (36%) were called active. Another 18% or so got no clear call; they are omitted. This is one part of the list.

Complete the entry with normalized growth for Cc1nc(-c2cccnc2)nc(NCc2ccccc2)c1Cl
0.8 (inactive)

Complete the entry with normalized growth for Cc1csc(NC(=O)Nc2ccc(C(F)(F)F)cc2)c1Cl
0.861 (inactive)

Complete the entry with normalized growth for CSc1n[nH]c(-c2cc(C(F)(F)F)cc(C(F)(F)F)c2)n1
0.894 (inactive)

Complete the entry with normalized growth for C=CCc1c(CCC)nc(-c2ccccn2)[nH]c1=O
0.752 (inactive)

###

# test summary: chemical genetic growth profiling, strain panel (AID 1159580);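 further: tested at 20 µM; growth read once vehicle control cultures reached saturation at 30 °C; 1 = growth at the plate median or of vehicle wells; lower values mean less growth of the strain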
# condition summary: S. cerevisiae deletion strains, growth OD, locus YOR136W, strain idh2, active compounds read low
In all, about 5,500 compounds went through this assay and about 2,000 (36%) were called active. Roughly 18% stayed inconclusive and do not appear here. This is one part of the list.
outcome measure: normalized growth
# output: bare number, no unit

molecule=Cc1cc(C(C)(C)C)c(O)c(C(C)(C)C)c1 outcome_measure="normalized growth" test_result=0.974
molecule=Nc1ccc(S(=O)(=O)Nc2ccnn2-c2ccccc2)cc1 outcome_measure="normalized growth" test_result=1
molecule="CCC(C)C(NC)C(=O)O (stereo not given)" outcome_measure="normalized growth" test_result=0.994
molecule="CC(C)=CCCC1(C)C=Cc2c(O)c3c(c(CC=C(C)C)c2O1)OC12C(=CC4CC1C(C)(C)OC2(C/C=C(/C)C(=O)O)C4=O)C3=O (stereo not given)" outcome_measure="normalized growth" test_result=0.958

Complete the entry with normalized growth for CC(C)=CCCC1(C)C=Cc2c(O)c3c(c(CC=C(C)C)c2O1)OC12C(=CCCC1C(C)(C)O[C@@]2(C/C=C(\C)C(=O)O)C(=O)O)C3=O (stereo not given in full)
0.94

###

# test summary: chemical genetic growth profiling, strain panel (AID 1159580);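 further: tested at 20 µM; growth read once vehicle control cultures reached saturation at 30 °C; 1 = growth at the plate median or of vehicle wells; lower values mean less growth of the strain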
# condition summary: S. cerevisiae deletion strains, growth OD, locus YDR137W, strain rgp1, active compounds read low
Screen size: about 5,500 compounds; about 2,000 (36%) were called active. Inconclusive results (about 18%) are left out. The list shows a part of the results. Where a SMILES comes first, the peptide text is derived from it. Bridges are numbered along the chain shown (N, C = ends). [ ]: non-standard residue; d: D form. The star is where a group is joined. ξ: configuration not given here. ξDab(CH2SO3H) = NC(CCNCS(=O)(=O)O)C(=O)O; Heptanoyl(6-Me) = CC(C)CCCCC(=O)*; Dab = NCC[CH](N)C(=O)O
Note to self: use y only for normalized growth readings below 1; a reading exactly at 1 still gets n.

compound="CCC(C)C1NC(=O)C(CCNCS(=O)(=O)O)NC(=O)C(NC(=O)C(CCNCS(=O)(=O)O)NC(=O)C(NC(=O)C(CCNCS(=O)(=O)O)NC(=O)CCCCC(C)C)C(C)O)CCNC(=O)C(C(C)O)NC(=O)C(CCNCS(=O)(=O)O)NC(=O)C(CCNCS(=O)(=O)O)NC(=O)C(C(C)CC)NC1=O (centres undefined) ({Heptanoyl(6-Me)}-[ξDab(CH2SO3H)]T[ξDab(CH2SO3H)][Dab][ξDab(CH2SO3H)]II[ξDab(CH2SO3H)][ξDab(CH2SO3H)]T; lactam 4-C; configuration not given here)" label_value=n
compound=COC(=O)Nc1nc2ccc(Sc3ccccc3)cc2[nH]1 label_value=y
compound=CCOP(=S)(OCC)Oc1nc(Cl)c(Cl)cc1Cl label_value=y

Strictly below 1 in normalized growth? CC(CC(=O)C1OC1(C)C)C1C(=O)CC2(C)C3=CCC4C(C)(C)C(OC5OCC(O)C(O)C5O)CCC45CC35C(O)CC12C (centres undefined)
n

Strictly below 1 in normalized growth? CC(=O)/C=C\[C@@H]1[C@@]2(C)CCCC(C)(C)C2CC[C@@]1(C)O (some centres undefined)
y

Strictly below 1 in normalized growth? COc1cccc2c1C(=O)c1c(O)c3c(c(O)c1C2=O)C[C@@](O)(C(=O)CO)C[C@@H]3OC1C[C@H](N)[C@H](O)[C@H](C)O1 (some centres undefined)
y

Strictly below 1 in normalized growth? COc1c(-c2coc3cc4c(cc3c2=O)CC(O)C(C)(C)O4)ccc2c1C=CC(C)(C)O2 (centres undefined)
y

Strictly below 1 in normalized growth? CC1OC(=O)C(C(C)C)NC(=O)C(C(C)C)OC(=O)C(C(C)C)NC(=O)C(C)OC(=O)C(C(C)C)NC(=O)C(C(C)C)OC(=O)C(C(C)C)NC(=O)C(C)OC(=O)C(C(C)C)NC(=O)C(C(C)C)OC(=O)C(C(C)C)NC1=O (centres undefined)
y

Strictly below 1 in normalized growth? COc1cc(C(=O)O[C@H]2CC[C@@]3(C)[C@@H]4CC[C@H]5[C@]6(O)C[C@H](O)[C@@]7(O)[C@@H](CN8C[C@@H](C)CC[C@H]8[C@@]7(C)O)[C@]6(O)C[C@@]53O[C@]24O)cc(OC)c1OC
y

###

# test summary: chemical genetic growth profiling, strain panel (AID 1159580);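 further: tested at 20 µM; growth read once vehicle control cultures reached saturation at 30 °C; 1 = growth at the plate median or of vehicle wells; lower values mean less growth of the strain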
# condition summary: S. cerevisiae deletion strains, growth OD, locus YLR027C, strain aat2, active compounds read low
Hit rate of the full screen: of about 5,500 compounds, about 2,000 (36%) were called active. About 18% were inconclusive and are not listed. The list shows a part of the results.
outcome measure: normalized growth

Worked examples follow.
compound=Cc1ccnc(NS(=O)(=O)c2ccc(N)cc2)n1 test_result="1 (inactive)"
compound=Nc1ccc(S(=O)(=O)Nc2cnc3ccccc3n2)cc1 test_result="1.01 (inactive)"
compound="C#C[C@]1(O)CCC2C3CCC4=CC(=O)CC[C@@H]4C3CC[C@@]21CC (stereo partly specified)" test_result="0.989 (inactive)"
compound=O=C1C(O)=C(O)C(=O)C(O)=C1O test_result="1.02 (inactive)"
compound="COc1c(-c2coc3cc4c(cc3c2=O)CC(O)C(C)(C)O4)ccc2c1C=CC(C)(C)O2 (stereo unspecified)" test_result="0.996 (inactive)"

Complete the entry with normalized growth for COC(=O)C[C@H]1C(C)(C)C2(O)OC34CC2C(=O)[C@]1(C)C3CC[C@]1(C)C4=CC(=O)O[C@H]1c1ccoc1 (stereo partly specified)
1 (inactive)

Complete the entry with normalized growth for CC(C)(C#N)O[C@@H]1O[C@H](CO)[C@@H](O)[C@H](O)[C@H]1O
1 (inactive)

Complete the entry with normalized growth for NCCC(=O)N[C@@H](Cc1cnc[nH]1)C(=O)O
0.997 (inactive)

Complete the entry with normalized growth for Nc1ccc(S(=O)(=O)Nc2ccnn2-c2ccccc2)cc1
0.985 (inactive)

Complete the entry with normalized growth for OC(CCN1CCCCC1)(c1ccccc1)C1CCCCC1 (stereo unspecified)
0.954 (inactive)

Complete the entry with normalized growth for OC(CCN1CCCCC1)(c1ccccc1)C1CC2C=CC1C2 (stereo unspecified)
1 (inactive)
